Items are presented alongside their recorded IC50.
- STUDY SYSTEM: Skeletal Myofibril ATPase (Rabbit Psoas myofibrils)
- EXPERIMENT SUMMARY: Skeletal Myofibril ATPase Assay
- ASSAY CONDITIONS: PK/LDH-coupled NADH absorbance at 340 nm

Inquiry: // query IC50 value for entry O=c1ccc(-c2nc(-c3cccc(Cl)c3)no2)nn1Cc1cncc(F)c1 [Compound 64]
Reply text: ≤ 10 µM

====

Items are presented alongside their recorded IC50.
- STUDY SYSTEM: Skeletal Myofibril ATPase (Rabbit Psoas myofibrils)
- EXPERIMENT SUMMARY: Skeletal Myofibril ATPase Assay
- ASSAY CONDITIONS: PK/LDH-coupled NADH absorbance at 340 nm

Please review the following examples before continuing.
O=c1ccc(-c2cccs2)nn1Cc1cccc(C(F)(F)F)c1 [Compound 59] :: > 100 µM
O=c1ccc(-c2nc(-c3ccsc3)no2)cn1Cc1ccccc1C(F)(F)F [Compound 115] :: > 120 µM
CCNC(=O)Cn1nc(-c2nc(-c3cccc(OC)c3)no2)ccc1=O [Compound 4] :: ≤ 10 µM
O=c1ccc(-c2nc(-c3cccc(F)c3)no2)cn1Cc1cccnc1 [Compound 102] :: ≤ 10 µM
O=C(Cn1nc(-c2nnc(-c3cncc(Cl)c3)s2)ccc1=O)NC1CCC1 [Compound 20] :: ≤ 10 µM
O=c1ccc(-c2nnc(-c3cccc(Cl)c3)o2)nn1Cc1ccccc1 [Compound 73] :: ≤ 10 µM
Cc1ccc(-c2ccc(=O)n(CCOc3cccc(C#N)c3)n2)s1 [Compound 61] :: > 100 µM
CCC(C)(C)NC(=O)Cn1nc(-c2ccc(C)s2)ccc1=O [Compound 82] :: ≤ 10 µM
COCCn1nc(-c2nc(-c3ccc(F)c(C)c3)no2)ccc1=O [Compound 74] :: 10 to 100 µM
Cc1ccc(-c2ccc(=O)n(CC(=O)NC(C)C)n2)s1 [Compound 33] :: ≤ 10 µM

Inquiry: // query IC50 value for entry Cc1cccc(-c2noc(-c3ccc(=O)n(Cc4nnc(C)o4)c3)n2)c1 [Compound 100]
Reply text: ≤ 10 µM

Inquiry: // query IC50 value for entry O=c1ccc(-c2nc(-c3cncc(F)c3)no2)cn1Cc1cccnc1 [Compound 108]
Reply text: 10 to 100 µM

Inquiry: // query IC50 value for entry CCCCn1nc(-c2nc(-c3ccc(F)cc3)no2)ccc1=O [Compound 76]
Reply text: ≤ 10 µM

Inquiry: // query IC50 value for entry Cc1cccc(-c2noc(-c3ccc(=O)n(Cc4cccnc4C#N)c3)n2)c1 [Compound 112]
Reply text: > 120 µM

Inquiry: // query IC50 value for entry CCNC(=O)Cn1nc(-c2nc(-c3cccc(Cl)c3F)no2)ccc1=O [Compound 3]
Reply text: ≤ 10 µM

====

- STUDY SYSTEM: Skeletal Myofibril ATPase (Rabbit Psoas myofibrils)
- EXPERIMENT SUMMARY: Skeletal Myofibril ATPase Assay
- ASSAY CONDITIONS: PK/LDH-coupled NADH absorbance at 340 nm
- Experimental: Overview: Myosin ATPase activity was assessed by using a coupled reaction system, in which ADP generated by the myosin ATPase function was coupled to the disappearance of NADH through the pyruvate kinase/lactate dehydrogenase (PK-LDH) system. Myosin ATPase activity produces ADP, which was used as a substrate for PK to produce pyruvate and regenerate ATP. […] The rate of the reaction was monitored through the time-dependent disappearance of NADH using absorbance at 340 nm. […]
pIC50: −log10 of the molar value.
OUTCOME MEASURE: pIC50

Cc1ccc(-c2ccc(=O)n(CC(=O)NCc3ccccc3)n2)s1 [Compound 35] :: 4.00 to 5.00

Read the next record carefully.
Inquiry: // query pIC50 value for entry CCCNC(=O)Cn1nc(-c2nc(-c3cccnc3)no2)ccc1=O [Compound 50]
Reply text: 4.00 to 5.00

Attribution: patent US12643892B2
